SUBJECT_OF_TEST: PSMA (FOLH1) (Homo sapiens)
Sequence (Q04609 whole entry): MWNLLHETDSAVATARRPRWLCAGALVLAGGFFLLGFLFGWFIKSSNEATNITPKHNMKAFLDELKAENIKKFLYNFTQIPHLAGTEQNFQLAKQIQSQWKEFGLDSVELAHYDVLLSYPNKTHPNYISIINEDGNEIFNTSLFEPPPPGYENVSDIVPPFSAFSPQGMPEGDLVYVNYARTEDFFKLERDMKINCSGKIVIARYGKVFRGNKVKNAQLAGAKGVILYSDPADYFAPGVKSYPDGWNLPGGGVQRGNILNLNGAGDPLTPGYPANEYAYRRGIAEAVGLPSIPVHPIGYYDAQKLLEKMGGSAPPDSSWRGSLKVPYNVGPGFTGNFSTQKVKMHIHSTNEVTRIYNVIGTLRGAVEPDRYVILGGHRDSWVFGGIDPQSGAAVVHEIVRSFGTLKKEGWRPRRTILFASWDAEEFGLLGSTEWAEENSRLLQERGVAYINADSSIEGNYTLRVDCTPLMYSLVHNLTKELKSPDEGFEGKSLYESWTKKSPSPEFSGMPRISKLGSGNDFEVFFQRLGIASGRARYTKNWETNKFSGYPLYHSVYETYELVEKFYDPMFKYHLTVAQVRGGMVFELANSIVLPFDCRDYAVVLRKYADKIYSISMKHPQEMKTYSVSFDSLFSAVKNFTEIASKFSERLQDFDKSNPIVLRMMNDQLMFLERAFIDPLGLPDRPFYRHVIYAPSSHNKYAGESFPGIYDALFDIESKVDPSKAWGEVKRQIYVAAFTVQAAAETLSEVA
MEASUREMENT_LABEL: IC50 (µM)
Quick reminder: number only, in µM, skip the unit.

Entry `O=C(O)[C@H](C[C@@H](F)C(=O)O)CP(=O)(O)O` needs its IC50 filled in; supply it.
0.014

Using the record for O=C(O)C(F)CC(CP(=O)(O)O)C(=O)O (racemic) , state its measured IC50.
0.03
